Reference source for all entries: the supplement of paper PMC7125110

B1: glmS ribozyme (parent)
chain: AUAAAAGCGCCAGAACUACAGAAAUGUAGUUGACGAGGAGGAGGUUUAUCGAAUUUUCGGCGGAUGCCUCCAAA

- Variants of: B1
- Method Description: self-cleavage kobs at 160 uM GlcN6P; higher = faster cleavage; RNA array
- Setup Conditions: with glucosamine-6-phosphate
Variants at the floor of the assay were thinned out.
Kindly state self-cleavage kobs at 160 uM GlcN6P for each of the entries shown.

IN: For C10G G63C , what is its reported self-cleavage kobs at 160 uM GlcN6P?
OUT: < 1e-05 s⁻¹

IN: For A33C C34G G40U A48U C61A , what is its reported self-cleavage kobs at 160 uM GlcN6P?
OUT: < 1e-05 s⁻¹

IN: For A6C G51A , what is its reported self-cleavage kobs at 160 uM GlcN6P?
OUT: < 1e-05 s⁻¹

IN: For A42G U46A , what is its reported self-cleavage kobs at 160 uM GlcN6P?
OUT: 0.000896 s⁻¹

IN: For C10U G13C G40A , what is its reported self-cleavage kobs at 160 uM GlcN6P?
OUT: < 1e-05 s⁻¹

IN: For C34A A42U , what is its reported self-cleavage kobs at 160 uM GlcN6P?
OUT: < 1e-05 s⁻¹

IN: For A15C C71G , what is its reported self-cleavage kobs at 160 uM GlcN6P?
OUT: 4.96e-05 s⁻¹

IN: For A15C C50G , what is its reported self-cleavage kobs at 160 uM GlcN6P?
OUT: 0.000107 s⁻¹

IN: For A36U G44A , what is its reported self-cleavage kobs at 160 uM GlcN6P?
OUT: < 1e-05 s⁻¹

IN: For C16A G62A , what is its reported self-cleavage kobs at 160 uM GlcN6P?
OUT: < 1e-05 s⁻¹

IN: For G9U C11A , what is its reported self-cleavage kobs at 160 uM GlcN6P?
OUT: < 1e-05 s⁻¹

IN: For A12C U47A , what is its reported self-cleavage kobs at 160 uM GlcN6P?
OUT: 0.00131 s⁻¹
